tested on: RXF 393 renal; assay: NCI-60 one-dose screen, 48 h; settings: 10 µM unless noted
About 83,000 compounds went through this panel and 20% of them were active in at least one assay; those are over-represented in the sample as a whole. Active and inactive are the calls of the source. The calls were made as follows: active = growth percent below 10; inactive = the rest.
One label from this list, please: label 1 for active, label 0 for inactive

In this assay, the call recorded for Cc1cc2c(cc1C)N(C(=O)CCl)CC(=O)N2 was what?
label 0

Outcome logged for O=S(=O)(NCCCNc1nccc(-c2c(-c3cccc(F)c3)nc3occn23)n1)c1ccc(F)cc1 in this assay:
label 0

Recorded call for CC(=O)ON1CCCC(P(=O)(OCCSC(=O)C(C)(C)C)OCCSC(=O)C(C)(C)C)C1=O (stereo unspecified) ?
label 1

Write down the call the test reported for this compound. Item: CC1(C)N=C(N)N=C(N)N1c1ccc(CCCCc2ccccc2)c(Cl)c1
label 0

Which result was noted for this compound in the test: C/C=C(\C)C(=O)N[C@H]1C(O)C[C@]2(C)C3CC[C@@]4(C)C(CC[C@@H]4C(C)N(C)C)C3CCC2C1O (stereo partly specified)
label 0

Status in this test for COc1ccc2c(c1)/C(=N/c1n[nH]c(=S)s1)C(=O)N2 ?
label 0

# outcome recorded in this test, key = O=C(Cc1ccc(NC(=O)c2cccc(Cl)c2)cc1)NCc1ccccc1
label 0

Assay result, entry Cc1nc2cc(O)c(O)cc2cc1Oc1ccc(NC(=O)Nc2ccc(Cl)c(Cl)c2)cc1 — outcome?
label 0

Hi, do you know how C=C(C)[C@@H]1CCC[C@]2(C(=O)N3CCN(C)CC3)CC[C@]3(C)[C@@H](CC[C@@H]4[C@@]5(C)CC/C(=N\NC(=O)c6ccncc6)C(C)(C)[C@@H]5CC[C@]43C)[C@@H]12 came out in this test?
label 0

// param item: N[C@H]1CCC[C@@H]1NCCCCN1C(=O)c2cccc3cc([N+](=O)[O-])cc(c23)C1=O ; yields the recorded call
label 0

What is the recorded call for this compound in the test? Cc1ccc(Cl)cc1NC(=O)c1sc2nc3c(cc2c1N)C(=O)CCC3
label 0

I'd appreciate the recorded outcome for CC(=O)O[C@H]1C[C@@H]2C(C)(C)C(=O)CC[C@@]2(C)c2ccc(C(C)C)cc21 from this test.
label 0

Name the outcome recorded for C/C(=N\O)[C@@H]1CC[C@]2(CO)CC[C@]3(C)[C@H](CC[C@@H]4[C@@]5(C)CCCNC(C)(C)[C@@H]5CC[C@]43C)[C@@H]12 in the assay.
label 0

Dear all, I need the recorded test outcome for O=C(N=Nc1c(O)[nH]c2ccccc12)Nc1ccc(F)cc1 , thank you.
label 0

Test call for this compound, please: O=S(=O)(NCCNc1nccc(-c2c(-c3ccc(F)c(O)c3)nc3sccn23)n1)c1ccc(F)cc1
label 1

Kindly provide the recorded test outcome for the following compound: CCOC(=O)c1[nH]c2c(c1C)-c1[nH]c(=O)c(S(=O)(=O)c3ccccc3)cc1SC2
label 1

Which outcome was entered for the compound Cc1ccc(-c2nc(SCc3nc4cc(Cl)c(Cl)cc4[nH]3)[nH]c(=O)c2C#N)cc1 in this test?
label 0

Which outcome was entered for the compound O=C(CSc1nnc(-c2cc(-c3ccccc3)nc3ccccc23)n1-c1ccccc1)Nc1ccc(C(=O)/C=C/c2ccc(Cl)cc2)cc1 in this test?
label 0

How was C[C@@H]1O[C@@H](O[C@@H]2C[C@H](c3ccc4c(c3O)C(=O)C3=C(C4=O)[C@@]4(O)C(=O)C[C@](C)(O)C[C@@]4(O)C=C3)O[C@H](C)[C@H]2O)CC[C@@H]1O[C@H]1C[C@@H](O)[C@H](O)[C@@H](C)O1 classified in this test?
label 0

Each compound tested received a call. Report the one for O=P(O)(O)OCC1OC(n2cnc3c(NCc4ccco4)ncnc32)C(O)C1O (stereo unspecified) .
label 1

I'd appreciate the recorded outcome for CC/C=C\C[C@H](O)C/C=C1/C(=O)C=C[C@@H]1C/C=C\CCCC(=O)O from this test.
label 0
